Target or system: EthR-VP16 (Mycobacterium bovis)
Sequence (Q7TVI1 whole entry, looked up): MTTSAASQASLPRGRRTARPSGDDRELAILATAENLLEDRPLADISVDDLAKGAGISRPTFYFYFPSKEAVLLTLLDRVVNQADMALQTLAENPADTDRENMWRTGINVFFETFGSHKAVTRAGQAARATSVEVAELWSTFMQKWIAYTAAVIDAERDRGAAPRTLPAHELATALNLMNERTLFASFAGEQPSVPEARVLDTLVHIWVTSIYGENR
Method summary: cell-based
Parameters: species or system M. bovis
Assay conditions: 48 h, read-out: % EthR activity (w/o = 100%); ± std. dev. of the mean (n = 3)
Observed property: remaining activity at 60 µM (%)
State just the number; it will be interpreted in %.

Previously resolved entries follow.
> print(dat)
                                   compound                 target.or.system  units  recorded.measurement
1  CC(C)CC(=O)N1CCOC(c2ccccc2)C1 (stereo not shown)  EthR-VP16 (Mycobacterium bovis)      %                  33.5
2          O=C(CCc1ccccc1)N1CC(Cc2ccccc2)C1  EthR-VP16 (Mycobacterium bovis)      %                  14.2
3               CCCC(=O)N1CCN(Cc2ccccc2)CC1  EthR-VP16 (Mycobacterium bovis)      %                  53.1

Now for a further compound.
The reported value for O=C(CCc1ccccc1)N1CCC1c1ccccc1 (stereo not shown) in terms of remaining activity at 60 µM is 33.2

====

Target or system: EthR-VP16 (Mycobacterium bovis)
Method summary: cell-based
Set-up: species or system M. bovis
Assay conditions: 48 h, read-out: % EthR activity (w/o = 100%); ± std. dev. of the mean (n = 3)
Observed property: remaining activity at 3 µM (%)
Just the number in %, nothing appended.

Use the examples below as a reference point.
> print(dat)
                                   compound           observed.property  units  recorded.measurement
1  O=C(CCc1ccccc1)N1CCOC(c2ccccc2)C1 (stereo not drawn)  remaining activity at 3 µM      %                  73.5
2  O=C(CCc1ccccc1)N1CCC1c1ccccc1 (stereo not drawn)  remaining activity at 3 µM      %                  97.4

Entry CCCCC(=O)N1CCOC(c2ccccc2)C1 (stereo not drawn) , EthR-VP16 (Mycobacterium bovis) data, remaining activity at 3 µM value: 101

====

Target or system: EthR-VP16 (Mycobacterium bovis)
Method summary: cell-based
Set-up: species or system M. bovis
Assay conditions: 48 h, read-out: % EthR activity (w/o = 100%); ± std. dev. of the mean (n = 3)
Observed property: remaining activity at 6 µM (%)
Report as a plain number; the unit % is understood.

Example cases with answers are listed next.
> print(dat)
                                   compound                 target.or.system           observed.property  recorded.measurement
1  O=C(CCCc1ccccc1)N1CCC1c1ccccc1 (stereo not drawn)  EthR-VP16 (Mycobacterium bovis)  remaining activity at 6 µM                  90.1
2  O=C(COc1ccc(F)cc1)N1CCC(c2ccccc2)C1 (stereo not drawn)  EthR-VP16 (Mycobacterium bovis)  remaining activity at 6 µM                  6.01
3          O=C(CCc1ccccc1)N1CC(Cc2ccccc2)C1  EthR-VP16 (Mycobacterium bovis)  remaining activity at 6 µM                    48
4  CC(C)(C)CC(=O)N1CCOC(c2ccccc2)C1 (stereo not drawn)  EthR-VP16 (Mycobacterium bovis)  remaining activity at 6 µM                    89
5  O=C(Cc1ccccc1)N1CCC(c2ccccc2)C1 (stereo not drawn)  EthR-VP16 (Mycobacterium bovis)  remaining activity at 6 µM                  16.3

Observed remaining activity at 6 µM on EthR-VP16 (Mycobacterium bovis), entry CCCC(=O)N1CCC(c2ccccc2)C1 (stereo not drawn) , equals 10.9

Measured remaining activity at 6 µM (EthR-VP16 (Mycobacterium bovis)), entry CCCC(=O)N1CCN(Cc2ccccc2)CC1 : 73.2

// remaining activity at 6 µM (EthR-VP16 (Mycobacterium bovis)) for CCCC(=O)N1CCOC(c2ccccc2)C1 (stereo not drawn) = 90.1

Response field remaining activity at 6 µM (EthR-VP16 (Mycobacterium bovis)) for item CCCCC(=O)N1CCN(Cc2ccccc2)CC1 : 46.2

====

Target or system: EthR-VP16 (Mycobacterium bovis)
Method summary: cell-based
Set-up: species or system M. bovis
Assay conditions: 48 h, read-out: % EthR activity (w/o = 100%); ± std. dev. of the mean (n = 3)
The label y is reserved for remaining activity at 300 µM strictly under 10%; n covers values equal to or above it.

> print(dat)
                                   compound  label
1  CC(C)CC(=O)N1CCOC(c2ccccc2)C1 (stereo not drawn) [Example 19]      n
2  O=C(Cc1ccccc1)N1CCC(c2ccccc2)C1 (stereo not drawn) [Example 17]      y
3  O=C(CCc1ccccc1)N1CCOC(c2ccccc2)C1 (stereo not drawn) [Example 21]      y

Exam item: Item CCCCCC(=O)N1CCOC(c2ccccc2)C1 (stereo not drawn) [Example 31, 1-(2-Phenylmorpholin-4-yl)hexan-1-one] : remaining activity at 300 µM beneath 10%, strictly?
Marked response: n

Exam item: A record lists O=C(Cc1cccs1)N1CCOC(c2ccccc2)C1 (stereo not drawn) [Example 14] . Is its remaining activity at 300 µM below 10%?
Marked response: y

Exam item: Record O=C(CCCc1ccccc1)N1CC(Cc2ccccc2)C1 [Example 27] : is its remaining activity at 300 µM strictly below 10%?
Marked response: n

Exam item: Record CCCCCC(=O)N1CCC(c2ccccc2)C1 (stereo not drawn) [Example 33, 1-(3-Phenylpyrrolidin-1-yl)hexan-1-one] : is its remaining activity at 300 µM strictly below 10%?
Marked response: y

Exam item: Hello, is remaining activity at 300 µM of the following compound strictly smaller than 10%? CCCC(=O)N1CCN(Cc2ccccc2)CC1 [Example 1, 1-(4-Benzylpiperazin-1-yl)butan-1-one]
Marked response: n

Exam item: # strict comparison: is reported remaining activity at 300 µM < 10%? input = CC(C)(C)CC(=O)N1CCOC(c2ccccc2)C1 (stereo not drawn) [Example 20]
Marked response: n

Exam item: Say whether its remaining activity at 300 µM is strictly beneath 10%. Entry: CCCC(=O)N1CCOC(c2ccccc2)C1 (stereo not drawn) [Example 3, 1-(2-Phenylmorpholino)butan-1-one]
Marked response: n

====

Target or system: UniProt:Q7TVI1
Method summary: cell-based
Set-up: species or system M. bovis
Assay conditions: 48 h, read-out: % EthR activity (w/o = 100%); ± std. dev. of the mean (n = 3)
Observed property: remaining activity at 60 µM (%)
# output: bare number, implied unit %

> print(dat)
                                   molecule  recorded.measurement
1  CCCCCC(=O)N1CCC(c2ccccc2)C1 (stereo not shown)                  5.24
2  O=C(CCc1ccccc1)N1CCOC(c2ccccc2)C1 (stereo not shown)                  6.29
3  O=C(CCCc1ccccc1)N1CCC1c1ccccc1 (stereo not shown)                  49.4
4         O=C(CCc1ccco1)N1CCN(Cc2ccccc2)CC1                  12.4
5  O=C(CCc1ccccc1)N1CCC(c2ccccc2)C1 (stereo not shown)                  2.82
6  O=C(Cc1ccccc1)N1CCC(c2ccccc2)C1 (stereo not shown)                  1.86

// assay UniProt:Q7TVI1, entry CCCC(=O)N1CCOC(c2ccccc2)C1 (stereo not shown) , remaining activity at 60 µM value = 81.9

Recorded remaining activity at 60 µM for CC(C)(C)CC(=O)N1CCOC(c2ccccc2)C1 (stereo not shown) on UniProt:Q7TVI1 was 33

# lookup: O=C(Cc1cccs1)N1CCOC(c2ccccc2)C1 (stereo not shown) on UniProt:Q7TVI1, remaining activity at 60 µM = 25.5

For O=C(COc1ccc(F)cc1)N1CCC(c2ccccc2)C1 (stereo not shown) on UniProt:Q7TVI1, measured remaining activity at 60 µM was 0.86

====

Target or system: UniProtKB Q7TVI1
Method summary: cell-based
Design: species or system M. bovis
Assay conditions: 48 h, read-out: % EthR activity (w/o = 100%); ± std. dev. of the mean (n = 3)
Observed property: remaining activity at 15 µM (%)
Kindly answer with a numeric value in %, unit omitted.

> print(dat)
                                   compound  target.or.system            observed.property  units  recorded.measurement
1         O=C(CCc1ccco1)N1CCN(Cc2ccccc2)CC1  UniProtKB Q7TVI1  remaining activity at 15 µM      %                  44.2
2  O=C(Cc1ccccc1)N1CCC(c2ccccc2)C1 (stereo not drawn)  UniProtKB Q7TVI1  remaining activity at 15 µM      %                  14.2
3  O=C(CCc1ccccc1)N1CCC1c1ccccc1 (stereo not drawn)  UniProtKB Q7TVI1  remaining activity at 15 µM      %                  77.8
4  CCCC(=O)N1CCC(c2ccccc2)C1 (stereo not drawn)  UniProtKB Q7TVI1  remaining activity at 15 µM      %                  12.4
5  CCCCCC(=O)N1CCC(c2ccccc2)C1 (stereo not drawn)  UniProtKB Q7TVI1  remaining activity at 15 µM      %                  4.58
6  O=C(CCc1ccccc1)N1CCOC(c2ccccc2)C1 (stereo not drawn)  UniProtKB Q7TVI1  remaining activity at 15 µM      %                  40.8

Recorded remaining activity at 15 µM for CCCC(=O)N1CCOC(c2ccccc2)C1 (stereo not drawn) on UniProtKB Q7TVI1 was 98.4

UniProtKB Q7TVI1 data for CC(C)CC(=O)N1CCOC(c2ccccc2)C1 (stereo not drawn) ; its remaining activity at 15 µM: 76

Known value: UniProtKB Q7TVI1 remaining activity at 15 µM of the compound O=C(Cc1cccs1)N1CCOC(c2ccccc2)C1 (stereo not drawn) equals 60.5

Entry CCCCCC(=O)N1CCN(Cc2ccccc2)CC1 , UniProtKB Q7TVI1 data, remaining activity at 15 µM value: 16.9

Value sought: remaining activity at 15 µM, system UniProtKB Q7TVI1, item CCCCC(=O)N1CCOC(c2ccccc2)C1 (stereo not drawn) . Result: 69.2

Entry CC(C)(C)CC(=O)N1CCOC(c2ccccc2)C1 (stereo not drawn) under UniProtKB Q7TVI1 had remaining activity at 15 µM of 75.5
